test: chemical genetic growth profiling, strain panel (AID 1159580);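 note: tested at 20 µM; growth read once vehicle control cultures reached saturation at 30 °C; 1 = growth at the plate median or of vehicle wells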; conditions: S. cerevisiae deletion strains, growth OD, locus YOR231W, strain MKK1, stronger effect = lower value
Hit rate of the full screen: of about 5,500 compounds, about 2,000 (36%) were called active. About 18% were inconclusive and are not listed. The list shows a part of the results.
Catalogue of normalized growth readings, one per entry.
Please state the value as a number alone, without comment.

Some compounds with recorded normalized growth:
NCC1CCC(C(=O)O)CC1 (centres undefined) = 1.05
COc1cc(NC(=S)NNS(=O)(=O)c2ccc(C)cc2)c(OC)cc1Cl = 0.994
COC1=C(OC)C(=O)C(C/C=C(\C)CC/C=C(\C)CC/C=C(\C)CC/C=C(/C)CC/C=C(\C)CC/C=C(\C)CC/C=C(\C)CC/C=C(\C)CC/C=C(\C)CCC=C(C)C)=C(C)C1=O = 1.05

Req: Answer with reported normalized growth of `C=C(C)[C@@H]1[C@H]2OC(=O)[C@@H]1[C@]1(O)C[C@H]3O[C@]34C(=O)O[C@H]2[C@]14C`
Resp: 1.02

----------
assay: chemical genetic growth profiling, strain panel (AID 1159580); details: S. cerevisiae deletion strains, growth OD, locus YHR129C, strain ARP1, stronger effect = lower value
The whole screen tested about 5,500 compounds, of which about 2,000 (36%) were called active. Another 18% or so got no clear call; they are omitted. Some of the results follow.
# reported normalized growth; entries follow

CC1=C(C(C)O)C2=NC1C=c1[nH]c(c(C)c1C(C)O)=Cc1[nH]c(c(CCC(=O)O)c1C)C=c1[nH]c(c(C)c1CCC(=O)O)=C2 (stereo unspecified) = 1 (inactive)
OCC(O)C(O)C(O)CO (stereo unspecified) = 1.02 (inactive)
CC(C(=O)O)c1ccc(-c2ccccc2)c(F)c1 (stereo unspecified) = 0.99 (inactive)

Req: Fill in normalized growth for record COc1ccc(OC)c(C(O)C(C)N)c1 (stereo unspecified)
Resp: 1.01 (inactive)

Req: Output normalized growth of COc1cc(NC(C)CCCN)c2ncccc2c1 (stereo unspecified)
Resp: 1 (inactive)

Req: Look up and state reported normalized growth for `CC(=O)c1c(O)c(C)c(O)c2c1oc1c(C(C)=O)c(O)c(C)c(O)c12`
Resp: 0.975 (inactive)

----------
assay: chemical genetic growth profiling, strain panel (AID 1159580); conditions: S. cerevisiae deletion strains, growth OD, locus YJL115W, strain asf1, stronger effect = lower value
The whole screen tested about 5,500 compounds, of which about 2,000 (36%) were called active. Roughly 18% stayed inconclusive and do not appear here. The list shows a part of the results.
normalized growth strictly less than 1 = rule met. Otherwise rule not met.

Sample answers from the record:
CCCCCCCCCCCCCCCC[N+](C)(C)C = rule met
CCN(CC)CCCC(C)Nc1ccnc2cc(Cl)ccc12 (stereo unspecified) = rule not met
CCCCCCNC(=O)n1cc(F)c(=O)[nH]c1=O = rule met
COc1cc2c(cc1OC)[C@@H]1C(=O)c3ccc(O)c(CC=C(C)C)c3O[C@@H]1CO2 = rule not met

Turning to the following molecule.
Req: Given CCN(CC)CCCC(C)Nc1c2ccc(Cl)cc2nc2ccc(OC)cc12 (stereo unspecified) , is recorded normalized growth strictly lower than 1?
Resp: rule not met

----------
assay: chemical genetic growth profiling, strain panel (AID 1159580); details: S. cerevisiae deletion strains, growth OD, locus YPL106C, strain sse1, stronger effect = lower value
The whole screen tested about 5,500 compounds, of which about 2,000 (36%) were called active. Another 18% or so got no clear call; they are omitted. This is one part of the list.
Reported values of normalized growth for individual entries
Write no unit; give the number alone.

Use these answered entries as a reference point.
CC(=O)OCC(=O)[C@@]1(O)CCC2C3CCC4=CC(=O)CC[C@]4(C)C3C(=O)C[C@@]21C (stereo partly drawn) = 1.02
ClC1=C(Cl)C2(Cl)C3C(Cl)C=CC3C1(Cl)C2(Cl)Cl (stereo not drawn) = 0.963

From here, focus on the item given below.
Req: For the molecule CC(N)CCCC(C)(C)O (stereo not drawn) , give its measured normalized growth value.
Resp: 0.951

----------
experiment: chemical genetic growth profiling, strain panel (AID 1159580);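 note: tested at 20 µM; growth read once vehicle control cultures reached saturation at 30 °C; 1 = growth at the plate median or of vehicle wells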; conditions: S. cerevisiae deletion strains, growth OD, locus YJL154C, strain vps35, stronger effect = lower value
Hit rate of the full screen: of about 5,500 compounds, about 2,000 (36%) were called active. About 18% were inconclusive and are not listed. This is one part of the list.
Attribute Measured: normalized growth
Quick one: just the number, no unit, thanks!

Answered cases to consult:
CN(C)CC/C=C1\c2ccccc2Sc2ccc(Cl)cc21 = 0.99
ClC1=C(Cl)C2(Cl)C3C(Cl)C=CC3C1(Cl)C2(Cl)Cl (stereo not given) = 1
CC(=O)O[C@H]1[C@@H]2[C@@H](OC(=O)Cc3ccccc3)[C@@H](C)C[C@]2(OC(C)=O)C(=O)/C(C)=C/[C@H]2[C@H](CC[C@@]13CO3)C2(C)C = 0.993
COc1cc(NC(C)CCCN)c2ncccc2c1 (stereo not given) = 1

We next turn to a different molecule, shown below.
Req: Hello, please tell me recorded normalized growth for this one: `CC1=C(C/C=C(\C)CCC[C@H](C)CCC[C@H](C)CCCC(C)C)C(=O)c2ccccc2C1=O`
Resp: 0.984

----------
experiment: chemical genetic growth profiling, strain panel (AID 1159580);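 note: tested at 20 µM; growth read once vehicle control cultures reached saturation at 30 °C; 1 = growth at the plate median or of vehicle wells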; conditions: S. cerevisiae deletion strains, growth OD, locus YHR200W, strain rpn10, stronger effect = lower value
About 2,000 (36%) of roughly 5,500 compounds were called active. Another 18% or so got no clear call; they are omitted. The list shows a part of the results.
Attribute Measured: normalized growth
Answer field: number only, no words.

C=C1C([C@]2(C)C(CC(=O)OC)[C@@](C)(COC(C)=O)OC(=O)C[C@@H]2OC(C)=O)[C@@H](OC=O)[C@H](OC(=O)C(OC(C)=O)C(C)CC)[C@@]2(C)[C@H](c3ccoc3)CC(=O)C12O (some centres undefined) = 1.03
CCOC(=O)c1c(C)cc(O)c(C)c1O = 0.933
COc1cc2c(cc1OC)C1C(=O)c3c(cc4c(c3O)C=CC(C)(C)O4)OC1CO2 (centres undefined) = 1.02
CC(C[N+](C)(C)C)OC(N)=O (centres undefined) = 0.987
CC1(C)C(C=C(Cl)Cl)C1C(=O)OC(C#N)c1cccc(Oc2ccccc2)c1 (centres undefined) = 0.992

Req: Write down normalized growth measured for item `CCOC(=O)c1c(C)cc(O)c(C=O)c1O`
Resp: 0.484

Req: Let me know recorded normalized growth for C=C1C([C@]2(C)C(CC(=O)OC)[C@@](C)(COC(C)=O)OC(=O)C[C@@H]2OC(C)=O)[C@@H](OC=O)[C@H](OC(=O)C(O)C(C)CC)[C@@]2(C)[C@H](c3ccoc3)CC(=O)C12O (some centres undefined) , thanks.
Resp: 0.995

Req: Please give measured normalized growth of the following entry: CC1/C(=N\O)C[C@@H]2C[C@H]1C2(C)C (some centres undefined)
Resp: 1.03

Req: Give normalized growth for the following molecule: `CCC(=O)O[C@H]1[C@H](O[C@@H]2[C@@H](C)[C@H](O[C@H]3C[C@@](C)(OC)[C@@H](O)[C@H](C)O3)[C@@H](C)C(=O)O[C@H](CC)[C@@](C)(O)[C@H](O)[C@@H](C)C(=O)[C@H](C)C[C@@]2(C)O)O[C@H](C)C[C@@H]1N(C)C`
Resp: 1.01

Req: Read off the recorded normalized growth for `CC(C)(O)[C@@H]1[C@H]2OC(=O)[C@@H]1[C@]1(O)C[C@H]3O[C@]34C(=O)O[C@H]2[C@]14C`
Resp: 1.03

Req: Recall and state the measured normalized growth for COc1cc2c(cc1OC)C1C(=O)c3c(OC)cc4c(c3OC1CO2)CCC(C)(C)O4 (centres undefined) .
Resp: 0.993

Req: Please give the documented normalized growth of `COc1ccc2c(c1)O[C@@H]1COc3cc(OC)c(OC)cc3[C@@H]1C2=O`
Resp: 0.939

Req: Find the measured normalized growth of `COc1ccc2c(c1OC)C(=O)O[C@H]2[C@H]1c2cc3c(cc2CCN1C)OCO3` and report it.
Resp: 1

Req: Identify measured normalized growth associated with ClC1=C(Cl)C2(Cl)C3C(Cl)C=CC3C1(Cl)C2(Cl)Cl (centres undefined)
Resp: 0.987

----------
assay: chemical genetic growth profiling, strain panel (AID 1159580);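 note: tested at 20 µM; growth read once vehicle control cultures reached saturation at 30 °C; 1 = growth at the plate median or of vehicle wells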; conditions: S. cerevisiae deletion strains, growth OD, locus YLR418C, strain cdc73
Hit rate of the full screen: of about 5,500 compounds, about 2,000 (36%) were called active. Not shown: some 18% with an inconclusive outcome. No stated cut-off is given here; in the data, active means normalized growth mostly below about 0.91 (no sharp cut-off); inconclusive means no clear call, values can overlap the other calls; inactive means mostly above about 0.92. This is one part of the list.
// allowed return values: t for active, f for inactive

O=C(O)C1(O)C[C@@H](O)C(O)[C@H](O)C1 (stereo partly specified) = f
c1ccc(N=Nc2ccccc2)cc1 = f
CCOC(=O)C(Cc1ccc(O)cc1)NC(C)=O (stereo unspecified) = f
CC(NCCc1ccc(O)cc1)C(O)c1ccc(O)cc1 (stereo unspecified) = f
COc1ccc2c(c1OC)C(=O)O[C@@H]2[C@H]1c2cc3c(cc2CCN1C)OCO3 = f
CN[C@@H](C)[C@@H](O)c1ccccc1 = f

Req: I'd appreciate the recorded outcome for `COc1cc(O)c(C(=O)/C=C/c2ccccc2)c(OC)c1` from this test.
Resp: t

Req: What was the test verdict on `COC1=C(OC)C(=O)C(C/C=C(\C)CC/C=C(\C)CC/C=C(\C)CC/C=C(/C)CC/C=C(\C)CC/C=C(\C)CC/C=C(\C)CC/C=C(\C)CC/C=C(\C)CCC=C(C)C)=C(C)C1=O` ?
Resp: f

Req: So what was the verdict on `C[N+](C)(C)CCCCCC[N+](C)(C)C` in this test?
Resp: f

Req: So what was the verdict on `CC(=O)N[C@@H](CC(C)C)C(=O)O` in this test?
Resp: f

Req: Tell me the recorded outcome of this test for `COc1ccc2c(c1OC)C(=O)O[C@H]2[C@H]1c2cc3c(cc2CCN1C)OCO3` .
Resp: f

Req: What did the test return for `CCCCCCCCCCCCCCCC[N+](C)(C)C` ?
Resp: t

Req: I would be grateful if you could indicate the recorded call for CC(CCc1ccccc1)NC(C)C(O)c1ccc(O)cc1 (stereo unspecified) .
Resp: f

Req: Which outcome was assigned to C=C(C)C1CNC(C(=O)O)C1CC(=O)O (stereo unspecified) in this test?
Resp: f

Req: What was the test verdict on CNC(C)[C@H](O)c1ccccc1 (stereo partly specified) ?
Resp: f

Req: Recorded call for CC1=C(C(C)O)C2=NC1C=c1[nH]c(c(C)c1C(C)O)=Cc1[nH]c(c(CCC(=O)O)c1C)C=c1[nH]c(c(C)c1CCC(=O)O)=C2 (stereo unspecified) ?
Resp: f
